IC50 overview
assay-target: Geranylgeranyl transferase type I (Homo sapiens, UniProt P49354+P53609)
experiment-summary: Inhibition of the human Geranylgeranyl transferase type I catalyzed incorporation of [3H]GGPP into a biotinylated peptide corresponding to the C-terminus of human K-Ras.
Give just the number in nM; leave the unit off.

Here are 5 compounds together with their reported answers.
O=C1CN(Cc2cncn2Cc2ccc(-c3ccc(C(F)(F)F)cc3)cc2)CCN1c1cccc(Cl)c1
140
O=C1CN(Cc2cncn2Cc2ccc(-c3ccccc3)cc2)CCN1c1cccc(Cl)c1
1390
O=C1CN(Cc2cncn2Cc2ccc(-c3ccc(Cl)cc3)cc2)CCN1c1cccc(Cl)c1
210
O=C1CN(Cc2cncn2Cc2ccc(-c3ccc(Cl)cc3)nc2)CCN1c1cccc(Cl)c1
2300
O=C1CN2CCc3cncn3Cc3ccc(-c4ccc(C(F)(F)F)cc4)c(c3)Oc3ccc4cccc(c4c3)N1CC2
15.6

Tell me the measured IC50 of `O=C1CN(Cc2cncn2Cc2ccc(-c3cc(C(F)(F)F)cc(C(F)(F)F)c3)cc2)CCN1c1cccc(Cl)c1` , please.
1870

Reported IC50 for `O=C1CN2CCc3cncn3Cc3cccc(c3)Oc3ccc4cccc(c4c3)N1CC2` : what is it?
509

Param item = `O=C1CN(Cc2cncn2Cc2ccc(-c3ccc(F)cc3)cc2)CCN1c1cccc(Cl)c1` ; retrieve measured IC50.
1340

Value lookup for IC50; key = `O=C1CN(Cc2cncn2Cc2ccc(-c3cccc(C(F)(F)F)c3)cc2)CCN1c1cccc(Cl)c1`
2680

----------
Documented pIC50 across a set of molecules
assay-target: Protein farnesyltransferase (Bos taurus, UniProt P29702+P49355)
experiment-summary: Inhibition of Farnesyltransferase catalyzed incorporation of [3H]-FPP into recombinant Ras-CVIM.
# reply with the number alone; pIC50 is -log10 of concentration in mol/L

Given the entry `O=C1CN(Cc2cncn2Cc2ccc(-c3ccc(Cl)cc3)nc2)CCN1c1cccc(Cl)c1` , report its measured pIC50.
7.72

Which pIC50 value is on record for `O=C1CN(Cc2cncn2Cc2ccc(-c3ccc(F)cc3)cc2)CCN1c1cccc(Cl)c1` ?
7.82

----------
assay-target: Protein farnesyltransferase (Bos taurus, UniProt P29702+P49355)
experiment-summary: Inhibition of Farnesyltransferase catalyzed incorporation of [3H]-FPP into recombinant Ras-CVIM.
reported-property: IC50 (nM)
Reply numerically in nM, unit not repeated.

O=C1CN2CCc3cncn3Cc3ccc(-c4ccc(C(F)(F)F)cc4)c(c3)Oc3ccc4cccc(c4c3)N1CC2
2.1
O=C1CN(Cc2cncn2Cc2ccc(-c3cccc(Cl)c3)cc2)CCN1c1cccc(Cl)c1
17
O=C1CN(Cc2cncn2Cc2ccc(-c3cc(C(F)(F)F)cc(C(F)(F)F)c3)cc2)CCN1c1cccc(Cl)c1
3500

Here's the next entry for you.
Suppose we examine the molecule `O=C1CN(Cc2cncn2Cc2ccc(-c3ccc(OC(F)(F)F)cc3)nc2)CCN1c1cccc(Cl)c1` ; what IC50 value has been reported?
52

----------
assay-target: Protein farnesyltransferase
experiment-summary: Displacement of radiolabeled FTI from Farnesyltransferase in v-Ha-ras-transformed Rat1 cells.
We label by threshold. Values of IC50 strictly beneath 200 nM are Y. Values of 200 nM and up are N.

Take a look at these entries with their results.
O=C1CN2CCc3cncn3Cc3ccc(CCCCC(F)(F)F)c(c3)Oc3ccc4cccc(c4c3)N1CC2
Y
O=C1CN2CCc3cncn3Cc3ccc(-c4ccc(C(F)(F)F)cc4)c(c3)Oc3ccc4cccc(c4c3)N1CC2
Y
O=C1CN(Cc2cncn2Cc2ccc(-c3cccc(C(F)(F)F)c3)cc2)CCN1c1cccc(Cl)c1
N
O=C1CN(Cc2cncn2Cc2ccc(-c3ccc(Cl)cc3)nc2)CCN1c1cccc(Cl)c1
N
O=C1CN(Cc2cncn2Cc2ccc(-c3ccc(C(F)(F)F)cc3)nc2)CCN1c1cccc(Cl)c1
Y
O=C1CN(Cc2cncn2Cc2ccc(-c3ccc(Cl)cc3)cc2)CCN1c1cccc(Cl)c1
Y

Threshold test, IC50 < 200 nM: `COc1cc(Cn2cncc2CCN2CCN(c3cccc(Cl)c3)C(=O)C2)ccc1-c1ccc(C(F)(F)F)cc1`
Y

Hello, is IC50 of the following molecule strictly smaller than 200 nM? `COc1cc(Cn2cncc2CN2CCN(c3cccc(Cl)c3)C(=O)C2)ccc1-c1ccc(C(F)(F)F)cc1`
Y
